- experimentSummary: Terminal half life in ICR mouse at 10 mg/kg, po
- Format: ADME, organism-based
- Parameters: dose 10 mg/kg, route oral
- reportedConditions: in vivo, read-out: beta t1/2 (converted)
assayReadout: half-life (h)
Answers are plain numbers, in h.

Lookup: Would you mind telling me what half-life value was observed for Cc1cc(SC(Cc2ccccc2)c2sc(-c3ccc(C(F)(F)F)cc3)nc2C)ccc1OCC(=O)O (stereo unspecified) ?
Found: 5.27

Attribution: ChEMBL document CHEMBL2034891
